system_name: HCV polymerase (NS5B) type 1b (Hepatitis C virus genotype 1b, UniProt P26663)
Construct: a region encoding NS5B (J Virol 1991 March, 65(3), 1105-13, 544 amino acids after deletion of 47 amino acids on the C-terminal); 6xHis (C); made in house; host or cells: Escherichia coli
protocol_details: Assay of enzyme (HCV polymerase) inhibitory activity, type 1b enzyme
Type: biochemical, HCV BK strain (type 1b)
assay_setup: HCV polymerase inhibitory activity (IC50), 1b, type 1b enzyme 0.5 μg/ml, 25° C., 60 min
pIC50: −log10 of the molar value. Structures can show the parent of a compound that is named as a salt.
Each record here notes measured pIC50.
recorded_metric: pIC50

In [3]: df
Out[3]:
                                   compound  recorded_metric  reported_measurement
0  CCC(F)(F)c1ccc(CNC(=O)[C@H]2CN(C(=O)Nc3nnc(C(=O)N4CCC(O)CC4)s3)CCN2S(=O)(=O)c2ccc(OC(F)(F)F)cc2)cc1 [Example 496]            pIC50                < 6.00
1  CC(C)c1ccc(CNC(=O)[C@H]2CN(C(=N)N)CCN2S(=O)(=O)c2ccc(C(F)(F)F)cc2)cc1 [Example 313, hydrochloride]            pIC50                > 7.00
2  CC(=O)N1CCN(S(=O)(=O)c2ccc(C(C)C)cc2)C(C(=O)NCc2ccc(N(C)C)cc2)C1 (stereo not drawn) [Example 37]            pIC50          6.00 to 7.00

###

system_name: HCV polymerase (NS5B) type 1a (Hepatitis C virus genotype 1a, UniProt P26664)
Construct: made in house; host or cells: Escherichia coli (by the 'similar method' of the 1b enzyme)
protocol_details: Assay of enzyme (HCV polymerase) inhibitory activity, type 1a enzyme
Format: biochemical, HCV type 1a (cloned from the blood of patients)
assay_setup: HCV polymerase inhibitory activity (IC50), 1a, type 1a enzyme 1.5 μg/ml, 25° C., 60 min
recorded_metric: IC50

                                    compound                               system_name  reported_measurement
 0  CC(=O)N1CCN(S(=O)(=O)c2ccc3ccccc3c2)C(C(=O)NCc2ccc(C(F)(F)F)cc2)C1 (centres unmarked)  HCV polymerase (NS5B) type 1a (Hepatitis C virus genotype 1a, UniProt P26664)             > 1000 nM
 1  CCCc1ccc(CNC(=O)[C@H]2CN(c3cnccn3)CCN2S(=O)(=O)c2ccc(OC(F)(F)F)cc2)cc1  HCV polymerase (NS5B) type 1a (Hepatitis C virus genotype 1a, UniProt P26664)              < 100 nM
 2  CC(C)c1ccc(CNC(=O)[C@H]2CN(C(=O)Cc3ccncc3)CCN2S(=O)(=O)c2ccc(C(F)(F)F)cc2)cc1  HCV polymerase (NS5B) type 1a (Hepatitis C virus genotype 1a, UniProt P26664)        100 to 1000 nM
 3  CCC(F)(F)c1ccc(CNC(=O)[C@H]2CN(C(=O)Nn3cnnc3)CCN2S(=O)(=O)c2ccc(OC(F)(F)F)cc2)cc1  HCV polymerase (NS5B) type 1a (Hepatitis C virus genotype 1a, UniProt P26664)        100 to 1000 nM
 4  Cc1nc(N2CCN(S(=O)(=O)c3ccc(OC(F)(F)F)cc3)[C@@H](C(=O)NCc3ccc(C(C)(C)C)cc3)C2)sc1C(=O)O  HCV polymerase (NS5B) type 1a (Hepatitis C virus genotype 1a, UniProt P26664)              < 100 nM
 5  CC(=O)N1CCN(S(=O)(=O)c2ccc(-c3ccccc3)cc2)C(C(=O)NCc2ccc(C(F)(F)F)cc2)C1 (centres unmarked)  HCV polymerase (NS5B) type 1a (Hepatitis C virus genotype 1a, UniProt P26664)             > 1000 nM
 6  CCC(F)(F)c1ccc(CNC(=O)[C@H]2CN(c3cnc4c(n3)NS(=O)(=O)NC4)CCN2S(=O)(=O)c2ccc(OC(F)(F)F)cc2)cc1  HCV polymerase (NS5B) type 1a (Hepatitis C virus genotype 1a, UniProt P26664)        100 to 1000 nM
 7  CC(=O)N1CCN(S(=O)(=O)c2ccc(C(C)C)cc2)C(C(=O)NCc2ccc(Cl)cc2Cl)C1 (centres unmarked)  HCV polymerase (NS5B) type 1a (Hepatitis C virus genotype 1a, UniProt P26664)             > 1000 nM
 8  CCC(CC)c1ccc(S(=O)(=O)N2CCN(C(C)=O)CC2C(=O)NCc2ccc(C(F)(F)F)cc2)cc1 (centres unmarked)  HCV polymerase (NS5B) type 1a (Hepatitis C virus genotype 1a, UniProt P26664)             > 1000 nM
 9  CC(C)c1ccc(S(=O)(=O)N2CCN(C3=NCCS3)CC2C(=O)NCc2ccc(C(F)(F)F)cc2)cc1 (centres unmarked)  HCV polymerase (NS5B) type 1a (Hepatitis C virus genotype 1a, UniProt P26664)             > 1000 nM
10  CCCc1ccc(CNC(=O)[C@H]2CN(c3nc(C)c(CN(C)C)s3)CCN2S(=O)(=O)c2ccc(OC(F)(F)F)cc2)cc1  HCV polymerase (NS5B) type 1a (Hepatitis C virus genotype 1a, UniProt P26664)              < 100 nM
11  CC(C)(C)c1ccc(CNC(=O)[C@H]2CN(c3cnc(CO)cn3)CCN2S(=O)(=O)c2ccc(OC(F)(F)F)cc2)cc1  HCV polymerase (NS5B) type 1a (Hepatitis C virus genotype 1a, UniProt P26664)              < 100 nM
12  CCCc1ccc(CNC(=O)[C@H]2CN(c3cnc4c(n3)NC(=O)OC4)CCN2S(=O)(=O)c2ccc(OC(F)(F)F)cc2)cc1  HCV polymerase (NS5B) type 1a (Hepatitis C virus genotype 1a, UniProt P26664)              < 100 nM
13  CC(C)c1ccc(CNC(=O)[C@H]2CN(C(=O)Cn3cncn3)CCN2S(=O)(=O)c2ccc(C(F)(F)F)cc2)cc1  HCV polymerase (NS5B) type 1a (Hepatitis C virus genotype 1a, UniProt P26664)              < 100 nM

###

system_name: HCV polymerase (NS5B) type 1b (Hepatitis C virus genotype 1b)
Construct: a region encoding NS5B (J Virol 1991 March, 65(3), 1105-13, 544 amino acids after deletion of 47 amino acids on the C-terminal); 6xHis (C); made in house; host or cells: Escherichia coli
protocol_details: Assay of enzyme (HCV polymerase) inhibitory activity, type 1b enzyme
Assay type: biochemical, HCV BK strain (type 1b)
assay_setup: HCV polymerase inhibitory activity IC50, 1b, type 1b enzyme
Each record here notes measured IC50.
recorded_metric: IC50

In [3]: df
Out[3]:
                                   compound  reported_measurement
0  CCCc1ccc(CNC(=O)[C@H]2CN(c3nc(C)c(S(=O)(=O)NC(C)=O)s3)CCN2S(=O)(=O)c2ccc(OC(F)(F)F)cc2)cc1 [Example 832]              < 0.1 µM
1  O=C(O)c1cnc(N2CCN(S(=O)(=O)c3ccc(Br)s3)[C@@H](C(=O)NCc3ccc(OC(F)(F)F)cc3)C2)cn1 [Example 787]              < 0.1 µM
2  CCC(F)(F)c1ccc(CNC(=O)[C@H]2CN(c3nc4cccnc4s3)CCN2S(=O)(=O)c2ccc(OC(F)(F)F)cc2)cc1 [Example 739]              < 0.1 µM

###

system_name: HCV polymerase (NS5B) type 1a (Hepatitis C virus genotype 1a, UniProt P26664)
Construct: made in house; host or cells: Escherichia coli (by the 'similar method' of the 1b enzyme)
protocol_details: Assay of enzyme (HCV polymerase) inhibitory activity, type 1a enzyme
Format: biochemical, HCV type 1a (cloned from the blood of patients)
assay_setup: HCV polymerase inhibitory activity (IC50), 1a, type 1a enzyme 1.5 μg/ml, 25° C., 60 min
Counter-ions that a name gives are not always drawn.
Each record here notes measured IC50.
recorded_metric: IC50

In [3]: df
Out[3]:
                                    compound  reported_measurement
 0  CC(=O)N1CCN(S(=O)(=O)c2ccc(C3CCCCC3)cc2)C(C(=O)NCc2ccc(C(F)(F)F)cc2)C1 (centres unmarked) [Example 167]             > 1000 nM
 1  CN(C)c1ccc(CNC(=O)[C@H]2CN(c3cnc4cncnc4n3)CCN2S(=O)(=O)c2ccc(OC(F)(F)F)cc2)cn1 [Example 630]              < 100 nM
 2  CCC(F)(F)c1ccc(CNC(=O)[C@H]2CN(C(=O)Cc3cn(C)cn3)CCN2S(=O)(=O)c2ccc(OC(F)(F)F)cc2)cc1 [Example 498]        100 to 1000 nM
 3  CCCc1ccc(CNC(=O)[C@H]2CN(c3nc(C)c(C(=O)O)s3)CCN2S(=O)(=O)c2ccc(OC(F)(F)F)c(F)c2)cc1 [Example 509]              < 100 nM
 4  Cc1nc(N2CCN(S(=O)(=O)c3ccc(C(F)(F)F)cc3)[C@@H](C(=O)NCc3ccc(C(C)C)cc3)C2)sc1C(N)=O [Example 7]              < 100 nM
 5  CC(=O)N1CCN(S(=O)(=O)c2ccc(C(C)C)cc2)C(C(=O)NCc2ccc(-c3ccccc3)cc2)C1 (centres unmarked) [Example 36]        100 to 1000 nM
 6  CN(C)c1ccc(CNC(=O)C2CNCCN2S(=O)(=O)c2ccc(I)cc2)cc1 (centres unmarked) [Example 84, hydrochloride]             > 1000 nM
 7  CC(=O)N1CCN(S(=O)(=O)c2ccc(Cl)cc2Cl)C(C(=O)NCc2ccc(C(F)(F)F)cc2)C1 (centres unmarked) [Example 161]             > 1000 nM
 8  CN1CCN(CC(=O)N2CCN(S(=O)(=O)c3ccc(I)cc3)[C@@H](C(=O)NCc3ccc(N(C)C)cc3)C2)CC1 [Example 346]             > 1000 nM
 9  CC(=O)N1CCN(S(=O)(=O)c2ccc(N(C)C)cc2)C(C(=O)NCc2ccc(C(F)(F)F)cc2)C1 (centres unmarked) [Example 92]             > 1000 nM
10  CC(=O)N1CCN(S(=O)(=O)c2cccc(C(=O)O)c2)C(C(=O)NCc2ccc(C(F)(F)F)cc2)C1 (centres unmarked) [Example 168]             > 1000 nM
11  CC(=O)NCC(=O)N1CCN(S(=O)(=O)c2ccc(C(F)(F)F)cc2)[C@@H](C(=O)NCc2ccc(C(C)C)cc2)C1 [Example 185]             > 1000 nM
12  CCC(F)(F)c1ccc(CNC(=O)[C@H]2CN(C(=O)Nc3nnc(C(F)(F)F)s3)CCN2S(=O)(=O)c2ccc(OC(F)(F)F)cc2)cc1 [Example 489]             > 1000 nM
13  CCC(CC)c1ccc(CNC(=O)C2CN(C(C)=O)CCN2S(=O)(=O)c2ccc(C(C)C)cc2)cc1 (centres unmarked) [Example 163]        100 to 1000 nM
14  CC(C)c1ccc(CNC(=O)[C@H]2CN(C(=O)Nc3ccc(Cl)cc3)CCN2S(=O)(=O)c2ccc(C(F)(F)F)cc2)cc1 [Example 271]             > 1000 nM
15  CC(C)c1ccc(S(=O)(=O)N2CCN(c3nc4ccccc4s3)CC2C(=O)NCc2ccc(C(F)(F)F)cc2)cc1 (centres unmarked) [Example 134]             > 1000 nM
16  CC(=O)N1CCN(S(=O)(=O)c2ccc(C(C)C)cc2)[C@@H](C(=O)NCCCN2CCOCC2)C1 [Example 404]             > 1000 nM
17  CCC(F)(F)c1ccc(CNC(=O)[C@H]2CN(C(=O)Cn3nnnc3C)CCN2S(=O)(=O)c2ccc(OC(F)(F)F)cc2)cc1 [Example 467]              < 100 nM
18  CC(C)c1ccc(CNC(=O)[C@H]2CN(C(=O)Nc3ccccc3)CCN2S(=O)(=O)c2ccc(C(F)(F)F)cc2)cc1 [Example 178]        100 to 1000 nM
19  Cc1nc(N2CCN(S(=O)(=O)c3ccc(OC(F)(F)F)cc3)[C@@H](C(=O)NCc3ccc(C(C)C)cc3)C2)sc1C(=O)N[C@H](C)C(=O)O [Example 369]              < 100 nM
20  CCC(F)(F)c1ccc(CNC(=O)[C@H]2CN(C(=O)Nc3ccnc(C(=O)O)c3)CCN2S(=O)(=O)c2ccc(OC(F)(F)F)cc2)cc1 [Example 502]        100 to 1000 nM
21  COC(=O)c1cnc(N2CCN(S(=O)(=O)c3ccc(C(F)(F)F)cc3)[C@@H](C(=O)NCc3ccc(C(C)C)cc3)C2)nc1C [Example 337]             > 1000 nM
22  CCC(F)(F)c1ccc(CNC(=O)[C@H]2CN(C(=O)Nc3ccnc(C(F)(F)F)c3)CCN2S(=O)(=O)c2ccc(OC(F)(F)F)cc2)cc1 [Example 555]        100 to 1000 nM
23  CCC(F)(F)c1ccc(CNC(=O)[C@H]2CN(C(=O)n3cnc(N)n3)CCN2S(=O)(=O)c2ccc(OC(F)(F)F)cc2)cc1 [Example 540]             > 1000 nM
24  CCCc1ccc(CNC(=O)[C@H]2CN(c3nc(C)c(C(=O)O)s3)CCN2S(=O)(=O)c2ccc(OC(F)(F)F)c(CCC)c2)cc1 [Example 499]              < 100 nM
25  CCC(F)(F)c1ccc(CNC(=O)[C@H]2CN(C(=O)Nc3ccnc(OC)c3)CCN2S(=O)(=O)c2ccc(OC(F)(F)F)cc2)cc1 [Example 490]              < 100 nM
